Test: Cytotoxicity against human THLE2 cells assessed as decrease in cell viability after 72 hrs by luminescence assay
Type: cell-based
Conditions: THLE-2 cells, read-out: LC50
// classify: if (CC50 at 72 h < 7 µM) Y else N

Please review the entries below; each comes with its answer.
Nc1ccc(-c2cccs2)cc1NC(=O)C1(S(=O)(=O)c2ccc(Oc3ccc(OC(F)(F)F)cc3)cc2)CCC2(CCNCC2)C1 (stereo not drawn) | Y
Nc1ccccc1NC(=O)C1(S(=O)(=O)c2ccc(NC3CCCCC3)cc2)CCC2(CCNCC2)C1 (stereo not drawn) | N
Nc1ccccc1NC(=O)C1(S(=O)(=O)c2ccc(Oc3ccc(OC(F)(F)F)cc3)cc2)CCC2(CCNCC2)C1 (stereo not drawn) | N
Nc1ccc(-c2ccccc2)cc1NC(=O)C1(S(=O)(=O)c2ccc(Oc3ccc(OC(F)(F)F)cc3)cc2)CCC2(CCNCC2)C1 (stereo not drawn) | Y
CNC(=O)NC(=O)C1(S(=O)(=O)c2ccc(Oc3ccc(OC(F)(F)F)cc3)cc2)CCC2(CCNCC2)C1 (stereo not drawn) | N

-- ask Here's an entry: O=C(Oc1ccccc1)C1(S(=O)(=O)c2ccc(Oc3ccc(OC(F)(F)F)cc3)cc2)CCC2(CCNCC2)C1 (stereo not drawn) . Is its CC50 at 72 h below 7 µM?
-- reply Y

-- ask I'd appreciate it if you could check whether CCCN1CCC2(CC1)CCC(C(=O)Nc1ccccc1N)(S(=O)(=O)c1ccc(Oc3ccc(OC(F)(F)F)cc3)cc1)C2 (stereo not drawn) has CC50 at 72 h smaller than 7 µM.
-- reply Y

-- ask Say whether its CC50 at 72 h is strictly beneath 7 µM. Entry: C#CCCCN1CCC2(CC1)CCC(C(=O)Nc1ccccc1N)(S(=O)(=O)c1ccc(C(=O)c3ccccc3)cc1)C2 (stereo not drawn)
-- reply N

---

Experiment: Therapeutic index, ratio of LC50 for human THLE2 cells to EC50 for antifibrinolytic activity in human whole blood
Assay type: toxicity
Property: log(ratio)
One number for each entry.

Would you please look over these solved cases?
Nc1ccccc1NC(=O)C1(S(=O)(=O)c2ccc(Oc3ccc(OC(F)(F)F)cc3)cc2)CCC2(CCNCC2)C1 (configuration not stated) | 0.904
O=C(Oc1ccccc1)C1(S(=O)(=O)c2ccc(Oc3ccc(OC(F)(F)F)cc3)cc2)CCC2(CCNCC2)C1 (configuration not stated) | 0.637

-- ask Entry under review: Nc1ccc(-c2cccs2)cc1NC(=O)C1(S(=O)(=O)c2ccc(Oc3ccc(OC(F)(F)F)cc3)cc2)CCC2(CCNCC2)C1 (configuration not stated) . Reported log(ratio)?
-- reply 0.493

---

For each record, write down the corresponding pIC50.
Target: Stromelysin-2 (Homo sapiens, UniProt P09238)
Sequence (P09238 whole entry): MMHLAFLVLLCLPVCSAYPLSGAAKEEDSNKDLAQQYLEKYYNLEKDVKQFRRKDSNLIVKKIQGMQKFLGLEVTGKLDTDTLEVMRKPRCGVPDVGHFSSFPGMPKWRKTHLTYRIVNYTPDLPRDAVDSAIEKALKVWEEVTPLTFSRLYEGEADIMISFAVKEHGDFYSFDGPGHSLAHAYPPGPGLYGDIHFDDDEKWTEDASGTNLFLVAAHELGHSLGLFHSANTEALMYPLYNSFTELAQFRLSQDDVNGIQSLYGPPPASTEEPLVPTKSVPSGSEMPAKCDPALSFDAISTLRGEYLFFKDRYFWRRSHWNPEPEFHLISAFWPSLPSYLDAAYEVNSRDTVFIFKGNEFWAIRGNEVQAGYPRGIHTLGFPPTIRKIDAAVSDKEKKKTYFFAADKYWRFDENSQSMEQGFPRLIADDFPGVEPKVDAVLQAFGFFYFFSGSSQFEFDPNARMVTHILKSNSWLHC
pIC50: −log10 of the molar value.

Examples from the recorded data:
CNC(=O)NC(=O)C1(S(=O)(=O)c2ccc(Oc3ccc(OC(F)(F)F)cc3)cc2)CCC2(CCNCC2)C1 (stereo not drawn) | < 5.00
CS(=O)(=O)NC(=O)C1(S(=O)(=O)c2ccc(Oc3ccc(OC(F)(F)F)cc3)cc2)CCC2(CCNCC2)C1 (stereo not drawn) | < 5.00
Nc1ccccc1NC(=O)C1(S(=O)(=O)c2ccc(Oc3ccc(OC(F)(F)F)cc3)cc2)CCC2(CCNCC2)C1 (stereo not drawn) | < 5.00

Give me pIC50 for each of these compounds, listed below.
1. CN(C)S(=O)(=O)NC(=O)C1(S(=O)(=O)c2ccc(Oc3ccc(OC(F)(F)F)cc3)cc2)CCC2(CCNCC2)C1 (stereo not drawn)
2. Nc1ccc(-c2ccccc2)cc1NC(=O)C1(S(=O)(=O)c2ccc(Oc3ccc(OC(F)(F)F)cc3)cc2)CCC2(CCNCC2)C1 (stereo not drawn)
3. Cc1ccc(-c2ccc(N)c(NC(=O)C3(S(=O)(=O)c4ccc(Oc5ccc(OC(F)(F)F)cc5)cc4)CCC4(CCNCC4)C3)c2)o1 (stereo not drawn)
4. C#CCCCN1CCC2(CC1)CCC(C(=O)Nc1ccccc1N)(S(=O)(=O)c1ccc(C(=O)c3ccccc3)cc1)C2 (stereo not drawn)
5. COc1ccc(S(=O)(=O)C2(C(=O)Nc3ccccc3N)CCC3(CCNCC3)C2)cc1Cl (stereo not drawn)

-- reply
1. < 5.00
2. < 5.00
3. < 5.00
4. < 5.00
5. < 5.00
